- assayed system: IL16_1, Q14005
- Sequence (Q14005 210-306): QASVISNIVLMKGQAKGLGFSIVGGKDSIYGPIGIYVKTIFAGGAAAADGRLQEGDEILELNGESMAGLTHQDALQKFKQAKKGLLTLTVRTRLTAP
- experiment summary: holdup assay
- Parameters: key: below the threshold = too weak to quantify, mostly under pKd 3.1 to 4
- condition notes: plain residues with an end cap or a label only (N-terminal biotin on a linker: ado-ado)
assay endpoint: pKd

binder: MHIQEKGFHV [EPHA6, Q9UF33]
assay endpoint: pKd
measurement: below the threshold
--
binder: QRPYRRGSEI [KCNJ18, B7U540]
assay endpoint: pKd
measurement: 3.61
--
binder: DTKNYKQTSV [CRIPT, Q9P021]
assay endpoint: pKd
measurement: below the threshold
--
binder: PPGKHLVTEV [KCNA7, Q96RP8]
assay endpoint: pKd
measurement: 3.5
--
binder: AEASVACSLC [PTGIR, P43119]
assay endpoint: pKd
measurement: below the threshold
--
binder: KPGKGSETVV [FZD4, Q9ULV1]
assay endpoint: pKd
measurement: 3.61
--
binder: EDPRVEVTQF [SLC22A9, Q8IVM8]
assay endpoint: pKd
measurement: below the threshold
--
binder: EKCGKEFSEF [PRKACA, P17612]
assay endpoint: pKd
measurement: below the threshold
